molecular target: Beta-secretase 1 (Homo sapiens, UniProt P56817); test: Inhibition of human recombinant BACE1 at 2 uM by FRET assay
Sequence (P56817 whole entry): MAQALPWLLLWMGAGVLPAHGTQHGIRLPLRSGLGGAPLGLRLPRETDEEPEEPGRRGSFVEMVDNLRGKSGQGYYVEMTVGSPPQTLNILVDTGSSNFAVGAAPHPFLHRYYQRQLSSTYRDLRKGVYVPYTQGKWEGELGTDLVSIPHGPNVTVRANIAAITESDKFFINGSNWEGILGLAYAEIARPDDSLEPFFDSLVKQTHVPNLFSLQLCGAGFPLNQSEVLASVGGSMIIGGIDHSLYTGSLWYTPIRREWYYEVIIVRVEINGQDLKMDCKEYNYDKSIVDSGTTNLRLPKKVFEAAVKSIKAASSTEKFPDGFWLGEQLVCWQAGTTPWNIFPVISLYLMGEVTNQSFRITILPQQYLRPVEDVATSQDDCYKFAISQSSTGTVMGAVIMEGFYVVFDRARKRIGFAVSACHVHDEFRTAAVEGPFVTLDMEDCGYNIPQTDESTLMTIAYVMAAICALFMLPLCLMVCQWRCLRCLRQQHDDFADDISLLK
The entries below come with measured inhibition values attached.
Please answer in the form of a number followed by its unit of measurement.

Sample records with inhibition:
**Query** Look at this molecule and give its reported inhibition. "CC(C)(C)[C@H]1COCN1C(=O)c1cc(C(=O)N[C@@H](Cc2ccccc2)[C@H](O)C(=O)Nc2cccc(-c3nn[nH]n3)c2)cc([N+](=O)[O-])c1"
**Result** 71%

**Query** Look at this molecule and give its reported inhibition. "O=C(N[C@@H](Cc1ccccc1)[C@H](O)C(=O)Nc1cccc(-c2nn[nH]n2)c1)c1cc(C(=O)N2COC[C@@H]2c2ccc(F)cc2)cc([N+](=O)[O-])c1"
**Result** 99%

Please find the next molecule below.
**Query** Look at this molecule and give its reported inhibition. "CCCC[C@H]1COCN1C(=O)c1cc(C(=O)N[C@@H](Cc2ccccc2)[C@H](O)C(=O)Nc2cccc(-c3nn[nH]n3)c2)cc([N+](=O)[O-])c1"
**Result** 92%

====

target: Beta-secretase 1 (Homo sapiens); assay: Inhibition of human recombinant BACE1 at 0.2 uM by FRET assay
The entries below come with measured inhibition values attached.
Write the value in % as a bare number.

**Query** Look at this molecule and give its reported inhibition. "CC(C)[C@H]1COCN1C(=O)c1cc(C(=O)N[C@@H](Cc2ccccc2)[C@H](O)C(=O)Nc2cccc(-c3nn[nH]n3)c2)cc([N+](=O)[O-])c1"
**Result** 44

**Query** Look at this molecule and give its reported inhibition. "O=C(N[C@@H](Cc1ccccc1)[C@H](O)C(=O)Nc1cccc(-c2nn[nH]n2)c1)c1cc(C(=O)N2COC[C@@H]2c2ccc(F)cc2)cc([N+](=O)[O-])c1"
**Result** 91

**Query** Look at this molecule and give its reported inhibition. "CCCC[C@H]1COCN1C(=O)c1cc(C(=O)N[C@@H](Cc2ccccc2)[C@H](O)C(=O)Nc2cccc(-c3nn[nH]n3)c2)cc([N+](=O)[O-])c1"
**Result** 59

Next:
**Query** Look at this molecule and give its reported inhibition. "CSCC[C@H]1COCN1C(=O)c1cc(C(=O)N[C@@H](Cc2ccccc2)[C@H](O)C(=O)Nc2cccc(-c3nn[nH]n3)c2)cc([N+](=O)[O-])c1"
**Result** 45

**Query** Look at this molecule and give its reported inhibition. "O=C(N[C@@H](Cc1ccccc1)[C@H](O)C(=O)Nc1cccc(-c2nn[nH]n2)c1)c1cccc(C(=O)N2COC[C@@H]2c2ccccc2)c1"
**Result** 46

====

The entries below come with measured inhibition values attached.
target: UniProt P56817; experiment: Inhibition of human recombinant BACE1 at 2 uM by FRET assay
Write the value in % as a bare number.

Sample records with inhibition:
**Query** Look at this compound and give its reported inhibition. "CSCC[C@H]1COCN1C(=O)c1cc(C(=O)N[C@@H](Cc2ccccc2)[C@H](O)C(=O)Nc2cccc(-c3nn[nH]n3)c2)cc([N+](=O)[O-])c1"
**Result** 86

**Query** Look at this compound and give its reported inhibition. "CCC[C@H]1COCN1C(=O)c1cc(C(=O)N[C@@H](Cc2ccccc2)[C@H](O)C(=O)Nc2cccc(-c3nn[nH]n3)c2)cc([N+](=O)[O-])c1"
**Result** 93

Next:
**Query** Look at this compound and give its reported inhibition. "C[C@H]1COCN1C(=O)c1cc(C(=O)N[C@@H](Cc2ccccc2)[C@H](O)C(=O)Nc2cccc(-c3nn[nH]n3)c2)cc([N+](=O)[O-])c1"
**Result** 33

====

molecular target: Beta-secretase 1 (Homo sapiens, UniProt P56817); experiment: Inhibition of human recombinant BACE1 by FRET assay
recorded_endpoint: pIC50
On this scale, pIC50 is minus log10 of a concentration expressed in M (mol/L).

**Query** Look at this compound and give its reported pIC50. "O=C(N[C@@H](Cc1ccccc1)[C@H](O)C(=O)Nc1cccc(-c2nn[nH]n2)c1)c1cc(C(=O)N2COC[C@@H]2c2ccccc2)cc([N+](=O)[O-])c1"
**Result** 7.72

**Query** Look at this compound and give its reported pIC50. "O=C(N[C@@H](Cc1ccccc1)[C@H](O)C(=O)Nc1cccc(-c2nn[nH]n2)c1)c1cc(C(=O)N2COC[C@@H]2c2ccc(F)cc2)cc([N+](=O)[O-])c1"
**Result** 7.89

Next:
**Query** Look at this compound and give its reported pIC50. "O=C(N[C@@H](Cc1ccccc1)[C@H](O)C(=O)Nc1cccc(-c2nn[nH]n2)c1)c1cccc(C(=O)N2COC[C@@H]2c2ccccc2)c1"
**Result** 6.72

**Query** Look at this compound and give its reported pIC50. "O=C(O)c1cc(C(=O)N[C@@H](Cc2ccccc2)[C@H](O)C(=O)Nc2cccc(-c3nn[nH]n3)c2)cc(C(=O)N2COC[C@@H]2c2ccccc2)c1"
**Result** 6.91

**Query** Look at this compound and give its reported pIC50. "Cc1cc(C(=O)N[C@@H](Cc2ccccc2)[C@H](O)C(=O)Nc2cccc(-c3nnn[nH]3)c2)cc(C(=O)N2COC[C@@H]2c2ccccc2)c1"
**Result** 7.17

**Query** Look at this compound and give its reported pIC50. "O=C(N[C@@H](Cc1ccccc1)[C@H](O)C(=O)Nc1cccc(-c2nnn[nH]2)c1)c1cc(I)cc(C(=O)N2COC[C@@H]2c2ccccc2)c1"
**Result** 7.47

**Query** Look at this compound and give its reported pIC50. "O=C(N[C@@H](Cc1ccccc1)[C@H](O)C(=O)Nc1cccc(-c2nn[nH]n2)c1)c1cc(Br)cc(C(=O)N2COC[C@@H]2c2ccccc2)c1"
**Result** 7.60

====

The entries below come with measured inhibition values attached.
biological target: Beta-secretase 1 (Homo sapiens); test: Inhibition of human recombinant BACE1 at 2 uM by FRET assay
Write the value in % as a bare number.

Sample records with inhibition:
**Query** Look at this compound and give its reported inhibition. "CCCN(CCC)C(=O)c1cc(C(=O)N[C@@H](Cc2ccccc2)[C@H](O)C(=O)Nc2cccc(-c3nn[nH]n3)c2)cc([N+](=O)[O-])c1"
**Result** 79

**Query** Look at this compound and give its reported inhibition. "O=C(N[C@@H](Cc1ccccc1)[C@H](O)C(=O)Nc1cccc(-c2nn[nH]n2)c1)c1cc(C(=O)N2CCCCCCCC2)cc([N+](=O)[O-])c1"
**Result** 28

**Query** Look at this compound and give its reported inhibition. "O=C(N[C@@H](Cc1ccccc1)[C@H](O)C(=O)Nc1cccc(-c2nn[nH]n2)c1)c1cc(C(=O)N2CCCCCCC2)cc([N+](=O)[O-])c1"
**Result** 80

Next:
**Query** Look at this compound and give its reported inhibition. "O=C(N[C@@H](Cc1ccccc1)[C@H](O)C(=O)Nc1cccc(-c2nn[nH]n2)c1)c1cc(C(=O)N2COC[C@@H]2Cc2ccc(O)cc2)cc([N+](=O)[O-])c1"
**Result** 80

**Query** Look at this compound and give its reported inhibition. "Nc1cc(C(=O)N[C@@H](Cc2ccccc2)[C@H](O)C(=O)Nc2cccc(-c3nn[nH]n3)c2)cc(C(=O)N2COC[C@@H]2c2ccccc2)c1"
**Result** 49

**Query** Look at this compound and give its reported inhibition. "O=C(N[C@@H](Cc1ccccc1)[C@H](O)C(=O)Nc1cccc(-c2nn[nH]n2)c1)c1cc(C(=O)N2CCCCC2)cc([N+](=O)[O-])c1"
**Result** 49

====

biological target: Beta-secretase 1 (Homo sapiens); experiment: Inhibition of human recombinant BACE1 at 2 uM by FRET assay
Where inhibition equals or exceeds 90%, the correct label is 1.0; where it does not, the label is 0.0.

Use the examples below as a reference point.
**Query** Has "CC(C)(C)c1cc(C(=O)N[C@@H](Cc2ccccc2)[C@H](O)C(=O)Nc2cccc(-c3nn[nH]n3)c2)cc(C(=O)N2COC[C@@H]2c2ccccc2)c1" a recorded inhibition greater than or equal to 90%?
**Result** 0.0

**Query** Has CCC(C)[C@H]1COCN1C(=O)c1cc(C(=O)N[C@@H](Cc2ccccc2)[C@H](O)C(=O)Nc2cccc(-c3nn[nH]n3)c2)cc([N+](=O)[O-])c1 (stereo partly specified) a recorded inhibition greater than or equal to 90%?
**Result** 1.0

**Query** Has "O=C(N[C@@H](Cc1ccccc1)[C@H](O)C(=O)Nc1cccc(-c2nn[nH]n2)c1)c1cc(C(=O)N2COC[C@@H]2CC2CCCCC2)cc([N+](=O)[O-])c1" a recorded inhibition greater than or equal to 90%?
**Result** 0.0

Please find the next compound below.
**Query** Has "O=C(N[C@@H](Cc1ccccc1)[C@H](O)C(=O)Nc1cccc(-c2nn[nH]n2)c1)c1cc(C(=O)N2COC[C@@H]2c2cc(F)c(F)c(F)c2)cc([N+](=O)[O-])c1" a recorded inhibition greater than or equal to 90%?
**Result** 0.0
